Where these numbers come from: ChEMBL document CHEMBL4627393

Test: Cmax in male cynomolgus monkey at 150 mg/kg, po
Type: ADME, organism-based, Macaca fascicularis
Parameters: dose 150 mg/kg, route oral
Conditions: in vivo
measured_endpoint: Cmax (µM)
Give bare numbers, in µM.

Q: Look up and report measured Cmax for this entry: Cn1nccc1-c1cc(C(F)(F)F)ccc1[C@H]1CCc2cc(S(=O)(=O)Nc3ncccn3)ccc21
Result: 66

###

Test: Metabolic stability in monkey liver microsomes assessed as metabolic rate at 1 uM preincubated for 5 mins followed by NADPH addition and measured up to 30 mins by LC/MS-MS analysis
Type: ADME, Macaca mulatta, Microsome
Conditions: rhesus monkey, 0.5 h
Answer each item with its documented Drug metabolism.
Answers are plain numbers, in nmol/min/mg.

| mol_smiles | measured_value |
| --- | --- |
| Cn1nccc1-c1cc(C(F)(F)F)ccc1[C@H]1CCc2cc(S(=O)(=O)Nc3ncccn3)ccc21 | 0.03 |
| O=S(=O)(Nc1ncccn1)c1ccc2c(c1)OCC[C@@H]2c1ccc(C(F)(F)F)cc1-c1ccc(F)nc1 | 0.01 |
| O=S(=O)(Nc1ncccn1)c1ccc2c(c1)OCC[C@@H]2c1ccc(C(F)(F)F)cc1N1CCOCC1 | 0.03 |
| Cn1nccc1-c1cc(C(F)(F)F)ccc1[C@H]1CCOc2cc(S(=O)(=O)Nc3ncccn3)ccc21 | 0.02 |

Q: Quote Drug metabolism reported for Cc1ccc(-c2cc(C(F)(F)F)ccc2[C@H]2CCOc3cc(S(=O)(=O)Nc4ncccn4)ccc32)cn1 please.
Result: 0.02

###

Assay: Tmax in male cynomolgus monkey at 150 mg/kg, po
Assay type: ADME, organism-based, Macaca fascicularis
Conditions: in vivo
measured_endpoint: Tmax (h)
One number for each entry, in h.

Q: Specify Tmax for Cn1nccc1-c1cc(C(F)(F)F)ccc1[C@H]1CCc2cc(S(=O)(=O)Nc3ncccn3)ccc21 and stop.
Result: 2

###

Test: Volume of distribution at steady state in Sprague-Dawley rat at 1 mg/kg, iv measured upto 24 hrs by LC/MS-MS analysis
Format: ADME, organism-based
Settings: in vivo, read-out: Vdss
measured_endpoint: Vd (L/kg)
Numbers only, in L/kg.

Study these solved cases before continuing.
| mol_smiles | measured_endpoint | measured_value |
| --- | --- | --- |
| O=S(=O)(Nc1ncccn1)c1ccc2c(c1)OCC[C@@H]2c1ccc(C(F)(F)F)cc1-c1ccc(F)nc1 | Vd | 1.2 |
| Cc1ccc(-c2cc(C(F)(F)F)ccc2[C@H]2CCOc3cc(S(=O)(=O)Nc4ncccn4)ccc32)cn1 | Vd | 0.8 |
| O=S(=O)(Nc1ncccn1)c1ccc2c(c1)OCC[C@@H]2c1ccc(C(F)(F)F)cc1N1CCOCC1 | Vd | 1.2 |
| Cn1nccc1-c1cc(C(F)(F)F)ccc1[C@H]1CCc2cc(S(=O)(=O)Nc3ncccn3)ccc21 | Vd | 1 |

Q: Supply reported Vd belonging to this compound: Cn1nccc1-c1cc(C(F)(F)F)ccc1[C@H]1CCOc2cc(S(=O)(=O)Nc3ncccn3)ccc21
Result: 0.9

###

Assay: Half life in BALB/c mouse at 1 mg/kg, iv measured upto 24 hrs by LC/MS-MS analysis
Format: ADME, organism-based
Details: in vivo
measured_endpoint: log10 half-life (log10 of the value in h)
Use the decimal logarithm of half-life (h).

| mol_smiles | log10 half-life |
| --- | --- |
| O=S(=O)(Nc1ncccn1)c1ccc2c(c1)OCC[C@@H]2c1ccc(C(F)(F)F)cc1N1CCOCC1 | 0.63 |
| Cc1ccc(-c2cc(C(F)(F)F)ccc2[C@H]2CCOc3cc(S(=O)(=O)Nc4ncccn4)ccc32)cn1 | 0.18 |

Please go through the list and note log10 half-life for each molecule.
1. Cn1nccc1-c1cc(C(F)(F)F)ccc1[C@H]1CCc2cc(S(=O)(=O)Nc3ncccn3)ccc21
2. Cn1nccc1-c1cc(C(F)(F)F)ccc1[C@H]1CCOc2cc(S(=O)(=O)Nc3nccs3)ccc21
3. O=S(=O)(Nc1nccs1)c1ccc2c(c1)OCC[C@@H]2c1ccc(C(F)(F)F)cc1-c1ccc(F)nc1
4. Cn1nccc1-c1cc(C(F)(F)F)ccc1[C@H]1CCOc2cc(S(=O)(=O)Nc3ncccn3)ccc21

Result:
1. 0.45
2. 0.30
3. 0.45
4. 0.62

Provide the reported log10 half-life of each entry below, same order.
1. O=S(=O)(Nc1nccs1)c1ccc2c(c1)OCC[C@@H]2c1ccc(C(F)(F)F)cc1-n1ccnn1
2. O=S(=O)(Nc1ncccn1)c1ccc2c(c1)OCC[C@@H]2c1ccc(C(F)(F)F)cc1-c1ccc(F)nc1

Result:
1: -0.40; 2: 0.51

###

Assay: Half life in Sprague-Dawley rat at 1 mg/kg, iv measured upto 24 hrs by LC/MS-MS analysis
Format: ADME, organism-based
Conditions: in vivo
half-life less than 300 min is True; half-life greater than or equal to 300 min is False.

| mol_smiles | qualitative_label |
| --- | --- |
| Cn1nccc1-c1cc(C(F)(F)F)ccc1[C@H]1CCOc2cc(S(=O)(=O)Nc3ncccn3)ccc21 | True |

Q: A record lists Cn1nccc1-c1cc(C(F)(F)F)ccc1[C@H]1CCc2cc(S(=O)(=O)Nc3ncccn3)ccc21 . Is its half-life below 300 min?
Result: True

Q: In the record for O=S(=O)(Nc1ncccn1)c1ccc2c(c1)OCC[C@@H]2c1ccc(C(F)(F)F)cc1-c1ccc(F)nc1 , is half-life less than 300 min?
Result: False

Q: Threshold test, half-life < 300 min: Cc1ccc(-c2cc(C(F)(F)F)ccc2[C@H]2CCOc3cc(S(=O)(=O)Nc4ncccn4)ccc32)cn1
Result: True

Q: Below 300 min on half-life? Entry O=S(=O)(Nc1ncccn1)c1ccc2c(c1)OCC[C@@H]2c1ccc(C(F)(F)F)cc1N1CCOCC1
Result: True

###

Experiment: Oral bioavailability in BALB/c mouse at 10 mg/kg measured upto 24 hrs by LC/MS-MS analysis
Format: ADME, organism-based
Settings: in vivo
Please go through the items and note down their bioavailability.

Field: example entries. Status: answers known.
| mol_smiles | bioavailability |
| --- | --- |
| O=S(=O)(Nc1nccs1)c1ccc2c(c1)OCC[C@@H]2c1ccc(C(F)(F)F)cc1-n1ccnn1 | 79% |
| Cn1nccc1-c1cc(C(F)(F)F)ccc1[C@H]1CCc2cc(S(=O)(=O)Nc3ncccn3)ccc21 | 99% |
| Cc1ccc(-c2cc(C(F)(F)F)ccc2[C@H]2CCOc3cc(S(=O)(=O)Nc4ncccn4)ccc32)cn1 | 83% |
| O=S(=O)(Nc1nccs1)c1ccc2c(c1)OCC[C@@H]2c1ccc(C(F)(F)F)cc1-c1ccc(F)nc1 | 95% |
| O=S(=O)(Nc1ncccn1)c1ccc2c(c1)OCC[C@@H]2c1ccc(C(F)(F)F)cc1N1CCOCC1 | 50% |

Provide the reported bioavailability of each entry below, same order.
1. Cn1nccc1-c1cc(C(F)(F)F)ccc1[C@H]1CCOc2cc(S(=O)(=O)Nc3ncccn3)ccc21
2. Cn1nccc1-c1cc(C(F)(F)F)ccc1[C@H]1CCOc2cc(S(=O)(=O)Nc3nccs3)ccc21
3. O=S(=O)(Nc1ncccn1)c1ccc2c(c1)OCC[C@@H]2c1ccc(C(F)(F)F)cc1-c1ccc(F)nc1

Result:
89%
68%
> 100%

###

For each record, write down the corresponding logD.
Assay: Lipophilicity, log D of the compound
Format: physicochemical
Details: octanol/water
One number for each entry.

Batch request: logD for each of the following compounds.
1. O=S(=O)(Nc1ncc(F)cn1)c1ccc2c(c1)OCC[C@@H]2c1ccc(C(F)(F)F)cc1-c1ccc(F)cn1
2. Cc1ccc(-c2cc(C(F)(F)F)ccc2[C@H]2CCOc3cc(S(=O)(=O)Nc4cccc(F)n4)ccc32)cn1
3. Cc1nc(-c2cc(C(F)(F)F)ccc2[C@H]2CCOc3cc(S(=O)(=O)Nc4ncccn4)ccc32)co1
4. Cc1ccc(-c2cc(C(F)(F)F)ccc2[C@H]2CCc3cc(S(=O)(=O)Nc4ncccn4)ccc32)cn1
5. O=S(=O)(Nc1nccs1)c1ccc2c(c1)OCC[C@H]2c1ccc(C(F)(F)F)cc1-c1nccs1
6. O=S(=O)(Nc1nccs1)c1ccc2c(c1)OCC[C@@H]2c1ccc(C(F)(F)F)cc1-n1ccnn1

Result:
1. 3
2. 3.7
3. 2.8
4. 2.8
5. 3.3
6. 2.3

Need logD for each of these compounds.
1. O=S(=O)(Nc1nccs1)c1ccc2c(c1)OCC[C@@H]2c1ccc(C(F)(F)F)cc1-c1ccc(F)nc1
2. O=S(=O)(Nc1ncccn1)c1ccc2c(c1)OCC[C@@H]2c1ccc(C(F)(F)F)cc1-c1ccc(F)nc1
3. O=S(=O)(Nc1nccs1)c1ccc2c(c1)OCC[C@@H]2c1ccc(C(F)(F)F)cc1-c1nccs1
4. O=S(=O)(Nc1ccncn1)c1ccc2c(c1)OCC[C@@H]2c1ccc(C(F)(F)F)cc1-c1ccc(F)nc1
5. O=S(=O)(Nc1ncc(F)cn1)c1ccc2c(c1)OCC[C@@H]2c1ccc(C(F)(F)F)cc1N1CCOCC1
6. O=S(=O)(Nc1cccc(F)n1)c1ccc2c(c1)OCC[C@@H]2c1ccc(C(F)(F)F)cc1N1CCOCC1

Result:
1: 3.2; 2: 2.8; 3: 3.3; 4: 2.3; 5: 2.8; 6: 4.1

Q: Check the records and state logD for Cc1nc(-c2cc(C(F)(F)F)ccc2[C@H]2CCOc3cc(S(=O)(=O)Nc4cccc(F)n4)ccc32)co1
Result: 4
